src = paper PMC9482650

Biological target: GRIP2_7, Q9C0E4
Sequence (Q9C0E4 934-1023): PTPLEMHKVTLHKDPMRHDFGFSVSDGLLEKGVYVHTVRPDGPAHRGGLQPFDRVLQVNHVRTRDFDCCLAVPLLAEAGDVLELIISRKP
Test: holdup assay
Set-up: key: below the threshold = too weak to quantify, mostly under pKd 3.1 to 4
Conditions: plain residues with an end cap or a label only (N-terminal biotin on a linker: ado-ado)
PROPERTY: pKd

QMNQTLPVQV [EPHB3, P54753]    3.58
YLEPVLSSEL [ATP2A2, P16615;P16615-3]    below the threshold
DDENIRTSDV [PLEKHA2, Q9HB19]    below the threshold
EVEEFPETSV [TRPV3, Q8NET8]    3.58
GNSVLKSTQF [SLC22A12, Q96S37]    below the threshold

binder VKPQVSESKL [ACOT8, O14734] , pKd observed: below the threshold

binder EALLQMESVA [CAVIN3, Q969G5] , pKd observed: below the threshold

binder SKENVQETQI [LRRC4B, Q9NT99] , pKd observed: below the threshold
